- TARGET: Glucose transporter (Leishmania mexicana)
- METHOD SUMMARY: ST_JUDE_LEISH: Cytotoxicity at 2uM final concentration against transgenic Leishmania Mexicana promastigotes LmGT2 that are glucose transport deficient and complemented with the L. Mexicana glucose transporter 2. Activity is measured by DNA content using SYBR green in vitro
- Assay type: functional
ENDPOINT LABEL: inhibition (%)
# output: bare number, implied unit %

Completed entries (count: 3):
• COC(=O)C(C)NCC(=O)c1ccccc1 (centres undefined) = 6.79
• O=C(Nc1cc(Cl)ccc1O)c1ccc(Oc2ccc(C(=O)Nc3cc(Cl)ccc3O)cc2)cc1 = -1
• COc1ccccc1CCNc1nc(C)cc(N[C@@H](CC(C)C)C(=O)Nc2ccccc2)n1 = -0.58

Challenge: Write down the reported inhibition of O=C(Nc1ccc([N+](=O)[O-])cc1Cl)c1cc2ccccc2cc1O , test system: Glucose transporter (Leishmania mexicana).
Response given: 1.3

Challenge: Also COc1ccc(C2SCC(=O)N2CCc2ccc(OC)c(OC)c2)cc1 (centres undefined) ?
Response given: 2.36

Challenge: Also CCc1sc(N2CCC(C)CC2)nc1C(=O)Nc1ccc(F)cc1C(F)(F)F ?
Response given: 0.26

Challenge: Also COc1ccc2nccc([C@@H](O)CN3CCC(NCc4ccc5cccc(O)c5n4)CC3)c2n1 ?
Response given: 0.77

Challenge: Also O=C(Nc1ccnc(N2CC3CC2CN3Cc2cccc(O)c2)c1)c1ccc(F)cc1 (centres undefined) ?
Response given: 1.75

Challenge: Also CCN(CC)/C(=N/C(=N)Nc1ccc(C)cc1)NCCCCCCN/C(=N\C(=N)Nc1ccc(C)cc1)N(CC)CC ?
Response given: 5.53

* * *

This section presents compounds with their documented inhibition values.
- TARGET: Solute carrier family 2, facilitated glucose transporter member 1 (Homo sapiens) (UniProt P11166)
- Sequence (P11166 whole entry): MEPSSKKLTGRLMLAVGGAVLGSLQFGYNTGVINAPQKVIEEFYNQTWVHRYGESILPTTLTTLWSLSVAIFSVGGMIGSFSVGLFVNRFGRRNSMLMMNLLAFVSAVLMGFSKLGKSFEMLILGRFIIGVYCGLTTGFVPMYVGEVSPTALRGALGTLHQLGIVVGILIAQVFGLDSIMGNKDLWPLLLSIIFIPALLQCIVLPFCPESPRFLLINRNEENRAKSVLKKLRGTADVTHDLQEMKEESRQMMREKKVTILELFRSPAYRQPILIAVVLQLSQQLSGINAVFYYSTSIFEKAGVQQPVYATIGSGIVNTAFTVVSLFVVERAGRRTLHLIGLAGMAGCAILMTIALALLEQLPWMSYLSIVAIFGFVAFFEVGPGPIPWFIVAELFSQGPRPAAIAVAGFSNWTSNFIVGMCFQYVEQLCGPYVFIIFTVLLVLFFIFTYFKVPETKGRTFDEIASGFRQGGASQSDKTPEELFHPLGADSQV
- METHOD SUMMARY: ST_JUDE_LEISH: Cytotoxicity at 2uM final concentration against transgenic Leishmania Mexicana promastigotes LmGLUT1 that are glucose transport deficient and complemented with the human glucose transporter GLUT1. Activity is measured by DNA content using SYBR green in vitro
- Assay type: functional
# output: bare number, implied unit %

Challenge: Sample COc1ccc(CCN(C)CCCCNC(=O)c2ccc(NC(=O)c3ccc(Cl)cc3)cc2)c(OC)c1 — what was its inhibition?
Response given: 1.64

* * *

- TARGET: Solute carrier family 2, facilitated glucose transporter member 1 (Homo sapiens) (UniProt P11166)
- METHOD SUMMARY: ST_JUDE_LEISH: Cytotoxicity at 2uM final concentration against transgenic Leishmania Mexicana promastigotes LmGLUT1 that are glucose transport deficient and complemented with the human glucose transporter GLUT1. Activity is measured by DNA content using SYBR green in vitro
- Type: functional
ENDPOINT LABEL: inhibition (%)
# output: bare number, implied unit %

Completed entries (count: 3):
• O=C(NCCN1Cc2ccccc2C1=O)c1ccc(Oc2ccc(C(=O)NCCN3Cc4ccccc4C3=O)cc2)cc1 = -0.35
• COc1cc(CCN(C)Cc2ccc(OC)c(OC)c2)ccc1NC(=O)c1cccc2c(O)c3cccc(F)c3nc12 = 3.49
• Cc1ccccc1NC(=S)NC1CCN(CCCCCNC(=O)/C=C/c2ccc(Cl)c(Cl)c2)CC1 = 5.52

Challenge: Sample CCc1ccc(CN(Cc2ccc(C)cc2)Cc2ccc(NC(C)=O)cc2)cc1 — what was its inhibition?
Response given: 2.72

Challenge: Also c1ccc(-c2nc(NC3CCCCC3)cc(C3CC3)n2)nc1 ?
Response given: 1.84

Challenge: Also COC(=O)c1cccc(NC(=O)NC2CCN(c3ccnc(Nc4ccc(F)cc4)n3)C2)c1 (stereo not given) ?
Response given: 2.08

Challenge: Also CS(=O)(=O)NCCCNCc1ccc(-c2cccc(-c3nc4cc(F)ccc4[nH]3)c2)cc1 ?
Response given: -2.11

Challenge: Also CCOC(=O)CCCc1cc(NC2CCN(C)CC2)nc(Nc2ccc(OC)cc2)n1 ?
Response given: -0.13

Challenge: Also Cc1cc2nc(-c3cccc(C(=O)NC4CCN(Cc5ccccc5)CC4)c3)[nH]c2cc1C ?
Response given: 1.16

Challenge: Also Cc1cc(Nc2ccc(Cl)c(Cl)c2)n2nc(C)nc2n1 ?
Response given: -1.71

Challenge: Also CC(C)C(=O)NC(c1cccs1)c1cc(Cl)c2cccnc2c1O (stereo not given) ?
Response given: 1.65

Challenge: Also O=C(Nc1cccc([N+](=O)[O-])c1)Nc1ccc(Cl)c(C(F)(F)F)c1 ?
Response given: -1.69

Data provenance is ChEMBL document CHEMBL3433997.
